From: the nanobody polyreactivity screen of Harvey et al. (2022)

assay summary: yeast display, Sf9 membrane polyspecificity reagent, FACS + sequencing; frameworks hold sequencing errors
quantity kind: polyreactivity (PSR sort gate)

{"columns": ["sequence input", "polyreactivity (PSR sort gate)"],
 "data": [
  ["QVQLVESGGGLVQAGGSLRLSCAASGSIFGYYDMGWYRQAPGKEREFVAASTFRGGRTYYADSVKGRFTISRDNEKNTVYIQMYSLKPEDTAVDFCAAGYHHRWGNYWGQGTQVTVSS", "high polyreactivity"],
  ["QVQLVESGGGLVQAGASLRLSCAGSGLIFTTYAMGWYRQAAGKERELVADINSDGSTYYADSVKGRFTISRDNAKNTVYLQMNSLKPEDTAVYYCAKDYVHQYGVYKVWANNYNYWGQGTQVTVSS", "low polyreactivity"],
  ["QVQLVESGGGLVQAGGSLRLSCAASGITFVYYAMRSYRQAPGKERELVAAITRSGDSTYYADSVKGRFTISRDNAKNTVYLQMNSLKPEDSAVYYCAAESYYSTYQVEYYYWGQGTQVTVSS", "high polyreactivity"],
  ["QVQLVESGGGLVQAGGSLRLSCAASGSTFGKYAMGWYRPAPGKERELVAAITNGGRTNYADSVKGRFTISRDNAMNTVYLQMNSLKPEDTAVYYCNKARYGTDDYDYWGQGTQVTVSS", "low polyreactivity"]
]}

Please indicate polyreactivity (PSR sort gate) recorded for QVQLVESGGGLVQAGGSLRLSCAASGSIFPFNAMGWYRPAPGKERELVAAITSGGSTNYADSVKGRFTISRDNAKNTVYLQMNSLKPEDTADYYCAADWRYWRWAFDYWGQGTQVTVSS
high polyreactivity

###

assay summary: yeast display, Sf9 membrane polyspecificity reagent, FACS + sequencing; frameworks hold sequencing errors

{"columns": ["sequence input", "polyreactivity (PSR sort gate)"],
 "data": [
  ["QVQLVESGGGLVQAGGSLRLSCAASGYTLNIYGMGWYRQATGKERELVAAISRGGSTNYADSVKGRFTISRDNAKNTVYLQMNSLKPEDTAVYYCAKVYNYRSVRYYYWGQGTQVTVSS", "high polyreactivity"],
  ["QVQLVESGGGLVQAGGSLRLSCAASGRTFYTNAMGWYRQAPGKERELVAAITRGGSTYYADSVKGRFTIPRDNAKNTVYLQMYSLKPEDTAVYYCAAAYASSWRQRVTSEKGYYWGQGTQVTVSS", "high polyreactivity"]
]}

###

assay summary: yeast display, Sf9 membrane polyspecificity reagent, FACS + sequencing; frameworks hold sequencing errors

{"columns": ["sequence input", "polyreactivity (PSR sort gate)"],
 "data": [
  ["QVQLVESGGGLFQAGGSLRLICAASGNIFKSYTMGWYRQAPGKERELVAAITSGGRTNYADSVKGRFTISRDNAKNTVYLQMNSLKPEDTAVYYCNAYKVFWVSIRYKFDYWGQGTQVTVSS", "high polyreactivity"],
  ["QVQLVESGGGLVQAGGSLRLSCAASGRIFGRYVMGWYRQAPGKERELVARIRRNGGSTYYADSVKGRFTISRDNAKNTVYLQMNSLKPDDTAVYDCAAESYDTWRRYESWGQGTQVTVSS", "high polyreactivity"]
]}

###

assay summary: yeast display, Sf9 membrane polyspecificity reagent, FACS + sequencing; frameworks hold sequencing errors

{"columns": ["sequence input", "polyreactivity (PSR sort gate)"],
 "data": [
  ["QVQLQESGGGLVQAGGSLRLSCAASGSIFVSVTMGWYRQAPGKERELVASIGRGSTTNHADSVKGRFTISRDNATNIFYLLMNSLNPEDTAVYYCAALESYGKYHGYWGQGTQVTVSS", "low polyreactivity"],
  ["QVQLVESGGGLLQAGGSLRLSCAASGGIIYYNAMGWSRQAPGKERELVAAIRYRGGSTYYADSVKGRFTISRDNEKNTVYLQMNSLKPEYTAVYYCAVDNLRRGLSLYDTLDYWGQGTQVTVSS", "low polyreactivity"]
]}

###

assay summary: yeast display, Sf9 membrane polyspecificity reagent, FACS + sequencing; frameworks hold sequencing errors
quantity kind: polyreactivity (PSR sort gate)

{"columns": ["sequence input", "result"],
 "data": [
  ["QVQLVESGGGVVQAGGSLRLSCAASGFIFSVIVMGWYRQAPGKERELVASIPSGGSPYYADSVKGRFTISRDNAKNTVYLQMNSLKPEDTAVYYCAAEFVRSVEHHPGFDYWGQGTQVTVSS", "low polyreactivity"],
  ["QVQLVESGGGLVQAGGSLRLSCAASGRTFTCYAMGWYRQAPGKERELVATAITSGGSTNYADSVKGRFTISRDNAKNTVYLQMISLKPEDTAVYYCAAVPTEFGNRLEYDYWGQGTQVTVSS", "low polyreactivity"],
  ["QVQLVESGGGLVQAGGSLRISCAASGRTFDINAMGWYSPAPGKERELVAAISSRGGTTFYADSVKGRFTISRDNAKNTVYLKMNSLKPEDSAVYYCAAVTSYYYTEEDYWGQGTQVTVSS", "low polyreactivity"],
  ["QVQLVESGGGLVQAGGSLRLSCAASGSIFPAYDMGWYRQAPGKERELVAAIDRGGSTYYADSVKGRFTISRDNAKNTVYLQMNSLKPEDTAVYYCATGYWNTSVYVRLEKRDYWGQGTQVTVSS", "low polyreactivity"],
  ["QFQLVESGGGLVQAGGSLRLSCAASGITFKTYAMGCYRQAPGKERELFATINRGSRTNYADSVKGRFTISRDNAKNTVYLQMNSLKPEDTAVYYCAAHYTTFIPSPDGDYLGQGTQVTVSS", "low polyreactivity"],
  ["QVQLVESGGGLVQAGGSLRLRCAASGSTFPPNAMGWYRQAPGKERELVAVISNGGSNTRYADSVKGRFTISRDHAKNTVYLQMNSLKPEDTAVYYCAADYEYSGYGYWGQGTQVTVSS", "high polyreactivity"]
]}

Let's switch to this sequence now.
Please indicate polyreactivity (PSR sort gate) recorded for QDQLVESGGGLVQAGGSLRLSCAASGSTFPKYAMGWYRQAPGKERELVASISVTTGSTYYADSVKGRFTISRDNAKNTVYLQMNSLKPEDTAVYYCPKRTYSRKFRGAYNYWGQGTQVTVSS
high polyreactivity

###

assay summary: yeast display, Sf9 membrane polyspecificity reagent, FACS + sequencing; frameworks hold sequencing errors
quantity kind: polyreactivity (PSR sort gate)

Here's what some known entries look like.
{"columns": ["sequence input", "polyreactivity (PSR sort gate)"],
 "data": [
  ["QVQLVESGGGLVQARGSLRLSCAASGSIFLYYAMGWYRQAPGKEREFVAAISIIGGSTYYADSVKGRFTISRDNAKNTVYLQMNSLKPEDTAVYYCAADYYYHRWTSVEGGYWGQGTQVTVSS", "low polyreactivity"],
  ["QVQLEESGGGLRQAGGRLRLSCAASGRTFYVNAKGWYRQAPGKERELVAAISWSGGSTYYADSVKGRFTITRDNAKNTVYLQMNSLKPEDTAVYYCAAEDIEVYEYWGQGTQVTVSS", "low polyreactivity"],
  ["QVQLVESGGGLVEAGGSLRLSCAASGSTFRYYAMGWYRQAPGKERELFAAITWSGGSTNYADSVKGRFTISRDNAKNTFYLQMNSLKPEDTAVYYCNARYLYRHSRYARYDSWGQGTQVTVSS", "high polyreactivity"],
  ["QVQLVESGGGLVQAAGSLRLSCAASGFIFRYNVMGWYRQAPGKERELVAAISTSGGRTYFADSEKGRFTISRDNAKNTGYLQMNSLKPEDTEVYYCNAVKSEGQKVRDGYYWGQGTQVTVSS", "high polyreactivity"],
  ["QVQLVESGGGLVQAGGSLRLSCAASGLTLRENAMGWYRQAPGKERELVAAITNGGSTYYADSVKGRFTISRDNAKNTVYLQMNSLKPEDTAVYYCAADNLTYVISWDSDYWGQGTQVTVSS", "low polyreactivity"]
]}

Please indicate polyreactivity (PSR sort gate) recorded for QVQLVESGGGLVQAGGSLRLSCAASGSTFYYNGMGWYRQAPGKERELVAVISISGGSTYYADSVKGRFTISRDNAKNTVYLQMNSLKPEDTAVYYCATSYVGRSAYRSYGARGGYWGQGTQVTVSS
low polyreactivity

Please indicate polyreactivity (PSR sort gate) recorded for QVQLVESGGGLVQAGGSLRLICAASGSTFSSYAMGLYIQAPGKEREFVAAINTDGGSTYYADSVKGRFTISRDNAKNTVYLQMNSLKPEDTAVYYCAADDISLAAHFDSWGQGTQVTVSS
low polyreactivity

Please indicate polyreactivity (PSR sort gate) recorded for QVQLVESGGGLVQAGGTLRLSCAASGITFYLNAMGWYRQAPGKERELVADITVSGGSTYYAVSVKGRFTISRDNVKNTVYLQMNSLKPEDTAVYYCAAKYSSGRVLFEHGYWGQGTQVTVSS
low polyreactivity

###

assay summary: yeast display, Sf9 membrane polyspecificity reagent, FACS + sequencing; frameworks hold sequencing errors
quantity kind: polyreactivity (PSR sort gate)

Here's what some known entries look like.
{"columns": ["sequence input", "polyreactivity (PSR sort gate)"],
 "data": [
  ["QVQLVESGGGLVQAGGSLRLSCAASGTFPDYAMGWYRQAPGKERELVAAITYRGGSTYYADSVKGRFTISRDNAKNTVYLQMNSLKPEDTAVYYCAADVVNAYKSLLVGDMYYWGQGTQVTVSS", "high polyreactivity"],
  ["QVQLVESGGGLVQAGGSLRLSCAASGLIFVGYAMGWYRQSPGKERELVAAITSGGSTKYADSVKGRVTISRDNAKNTDYLQMNSLKPEDTAVYYCADSGCRNWWSARNYYWGQGTQVTVSS", "low polyreactivity"],
  ["QVQLVESGGGLVQAGGSLRLSCAASGSTFGGKAMGWYRQAPGKDREMVAAITGSGGRTFYADSVKGRFTISRDNAKNTVYLQMNSLKQEDTAVYSCAAYSYIYSVNYWGQVTQVTVSS", "low polyreactivity"],
  ["QVQLVESGGGLVQAGGSLRLSCAASASIISYYAKGWYRQAPGKERELVAAISGSGSRTYYADSVKGRFTISRDNAKNTVYLQMNSLKPEDTAVYYCAARSLYRGFGYWGQGTQVTVSS", "high polyreactivity"]
]}

Let's switch to this sequence now.
Please indicate polyreactivity (PSR sort gate) recorded for QVQLVESGGGLVQEGGSLRLSSAASGRTFGTNPMGWYRQAPGKERELVAAISTRDGSTYYADSVKGRFSISRDNAKNTVYLQMNSLKPEDTAVYYCNAVVRYYDWGYLDYDYWGQGTQVTVSS
low polyreactivity
